- Tested on: α-isomaltosylglucosaccharide-forming enzyme
- Measurement protocol: Action on saccharides (substrates), Enzyme of Strain A19
- Format: biochemical, Arthrobacter globiformis A19
- Parameters: key: −: it showed no change; +: it showed a slight reduction of the color spot of the substrate and the formation of other reaction product; ++: it showed a high reduction of the color spot of the substrate and the formation of other reaction product; +++: it showed a substantial disappearance of the substrate spot and the formation of other reaction product
- Run conditions: two units/g substrate, substrate 2% (w/v), 30° C., pH 8.4, 24 hours, TLC
Experimental readout: Enzymatic action, Enzyme of Strain A19

compound="OC[C@H]1O[C@H](O[C@H]2[C@H](O)[C@@H](CO)OC(O)[C@@H]2O)[C@H](O)[C@@H](O)[C@@H]1O (stereo partly drawn) [Nigerose]" value_reported=+
compound="O=C[C@H](O)[C@@H](O)[C@H](O[C@@H]1O[C@H](CO)[C@@H](O)[C@H](O)[C@H]1O)[C@H](O)CO [Cellobiose]" value_reported=−
compound="OC[C@H]1O[C@@H](O[C@H]2O[C@H](CO)[C@@H](O)[C@H](O)[C@H]2O)[C@H](O)[C@@H](O)[C@@H]1O [Neotrehalose]" value_reported=+

* * *

- Tested on: α-isomaltosylglucosaccharide-forming enzyme
- Measurement protocol: Influence of metal ions on the activity of α-isomaltosylglucosaccharide-forming enzyme (Strain C9)
- Assay type: biochemical, Bacillus globisporus C9
- Run conditions: 1 mM of each metal-ion
Experimental readout: Relative activity (%)
State the result as a value with its unit after it.

Here is how some molecules turned out for Relative activity (%).
molecule=[Sr+2] experimental_readout="Relative activity (%)" value_reported=80%
molecule=[Ba+2] experimental_readout="Relative activity (%)" value_reported=65%

With those in mind, consider the next molecule.
Given item [Cu+2] , the value recorded as its Relative activity (%) is 15%

* * *

- Tested on: α-isomaltosylglucosaccharide-forming enzyme
- Measurement protocol: Action on saccharides (substrates), Enzyme of Strain C11
- Format: biochemical, Bacillus globisporus C11
- Set-up: key: −: it showed no change; +: it showed a slight reduction of the color spot of the substrate and the formation of other reaction product; ++: it showed a high reduction of the color spot of the substrate and the formation of other reaction product; +++: it showed a substantial disappearance of the substrate spot and the formation of other reaction product
- Run conditions: two units/g substrate, substrate 2% (w/v), 30° C., pH 6.0, 24 hours, TLC
Experimental readout: Enzymatic action, Enzyme of Strain C11

compound="OC[C@@H](O)[C@@H](O[C@H]1O[C@H](CO)[C@@H](O)[C@H](O)[C@H]1O)[C@H](O)[C@@H](O)CO [Maltitol, reference compound]" experimental_readout="Enzymatic action, Enzyme of Strain C11" value_reported=−
compound=OC[C@H]1O[C@H](O[C@H]2O[C@H](CO)[C@@H](O)[C@H](O)[C@H]2O[C@H]2O[C@H](CO)[C@@H](O)[C@H](O)[C@H]2O)[C@H](O)[C@@H](O)[C@@H]1O experimental_readout="Enzymatic action, Enzyme of Strain C11" value_reported=−
compound="OC[C@H]1O[C@H](O[C@H]2[C@H](O)[C@@H](O)[C@@H](O[C@H]3[C@H](O)[C@@H](O)[C@@H](O[C@H]4[C@H](O)[C@@H](O)C(O)O[C@@H]4CO)O[C@@H]3CO)O[C@@H]2CO)[C@H](O)[C@@H](O)[C@@H]1O (stereo partly shown)" experimental_readout="Enzymatic action, Enzyme of Strain C11" value_reported=+++
compound=OC[C@H]1O[C@@](CO)(O[C@H]2O[C@H](CO)[C@@H](O[C@H]3O[C@H](CO)[C@@H](O)[C@H](O)[C@H]3O)[C@H](O)[C@H]2O)[C@@H](O)[C@@H]1O experimental_readout="Enzymatic action, Enzyme of Strain C11" value_reported=+

* * *

Relative activity (%) by entry:
- Tested on: α-isomaltosyl-transferring enzyme
- Measurement protocol: Influence of metal ions on the activity of α-isomaltosyl-transferring enzyme (Strain C9)
- Assay type: biochemical, Bacillus globisporus C9
- Run conditions: 1 mM of each metal-ion
The reply should contain only the number, in %.

molecule="O=C(O)CN(CCN(CC(=O)O)CC(=O)O)CC(=O)O [EDTA, ethylenediaminetetraacetic acid, reference compound]" value_reported=104
molecule=[Cu+2] value_reported=57
molecule=[Al+3] value_reported=103
molecule=[Ni+2] value_reported=102
molecule=[Sr+2] value_reported=101

Briefly, Relative activity (%) measured for [Hg+2] : 1

* * *

- Tested on: α-isomaltosylglucosaccharide-forming enzyme
- Measurement protocol: Action on saccharides (substrates), Enzyme of Strain A19
- Assay type: biochemical, Arthrobacter globiformis A19
- Design: key: −: it showed no change; +: it showed a slight reduction of the color spot of the substrate and the formation of other reaction product; ++: it showed a high reduction of the color spot of the substrate and the formation of other reaction product; +++: it showed a substantial disappearance of the substrate spot and the formation of other reaction product
- Run conditions: two units/g substrate, substrate 2% (w/v), 30° C., pH 8.4, 24 hours, TLC
Experimental readout: Enzymatic action, Enzyme of Strain A19

Consider the worked cases shown below.
compound=OC[C@H]1O[C@H](O[C@H]2O[C@H](CO)[C@@H](O)[C@H](O)[C@H]2O[C@H]2O[C@H](CO)[C@@H](O)[C@H](O)[C@H]2O)[C@H](O)[C@@H](O)[C@@H]1O value_reported=−
compound=OC[C@H]1O[C@H](O[C@H]2[C@H](O)[C@@H](O)[C@H](O)O[C@@H]2CO)[C@H](O)[C@@H](O)[C@@H]1O value_reported=+
compound="OC[C@H]1O[C@H](O[C@H]2C(O)O[C@H](CO)[C@@H](O)[C@@H]2O)[C@H](O)[C@@H](O)[C@@H]1O (some centres unmarked)" value_reported=+
compound="OC[C@H]1O[C@H](O[C@H]2[C@H](O)[C@@H](O)[C@@H](O[C@H]3[C@H](O)[C@@H](O)[C@@H](O[C@H]4[C@H](O)[C@@H](O)C(O)O[C@@H]4CO)O[C@@H]3CO)O[C@@H]2CO)[C@H](O)[C@@H](O)[C@@H]1O (some centres unmarked)" value_reported=+++

The value of Enzymatic action, Enzyme of Strain A19 recorded for OC[C@@H](O)[C@@H](O[C@H]1O[C@H](CO)[C@@H](O)[C@H](O)[C@H]1O)[C@H](O)[C@@H](O)CO [Maltitol, reference compound] when tested on α-isomaltosylglucosaccharide-forming enzyme reads −

* * *

- Tested on: α-isomaltosylglucosaccharide-forming enzyme
- Measurement protocol: Transfer-acceptor specificity, Enzyme of Strain C11
- Type: biochemical, Bacillus globisporus C11
- Set-up: key: −: no saccharide-transferred product was detected through transfer reaction to acceptor; ∀: a saccharide-transferred product was detected in an amount less than one percent through transfer reaction to acceptor; +: a saccharide-transferred product was detected in an amount over one percent but less than ten percent through transfer reaction to acceptor; ++: a saccharide-transferred product was detected in an amount over ten percent through transfer reaction to acceptor
- Run conditions: acceptor 1.6%, PINE-DEX #100 donor 4%, one unit/g donor, 30° C., pH 6.0, 24 hours
Experimental readout: Product of transferring reaction, Enzyme of Strain C11

compound="OC[C@H]1O[C@@H]2O[C@H]3[C@H](O)[C@@H](O)[C@@H](O[C@H]4[C@H](O)[C@@H](O)[C@@H](O[C@H]5[C@H](O)[C@@H](O)[C@@H](O[C@H]6[C@H](O)[C@@H](O)[C@@H](O[C@H]7[C@H](O)[C@@H](O)[C@@H](O[C@H]8[C@H](O)[C@@H](O)[C@@H](O[C@H]9[C@H](O)[C@@H](O)[C@@H](O[C@H]1[C@H](O)[C@H]2O)O[C@@H]9CO)O[C@@H]8CO)O[C@@H]7CO)O[C@@H]6CO)O[C@@H]5CO)O[C@@H]4CO)O[C@@H]3CO [γ-Cyclodextrin]" value_reported=−

* * *

- Tested on: α-isomaltosylglucosaccharide-forming enzyme
- Measurement protocol: Action on saccharides (substrates), Enzyme of Strain N75
- Assay type: biochemical, Bacillus globisporus N75
- Parameters: key: −: it showed no change; +: it showed a slight reduction of the color spot of the substrate and the formation of other reaction product; ++: it showed a high reduction of the color spot of the substrate and the formation of other reaction product; +++: it showed a substantial disappearance of the substrate spot and the formation of other reaction product
- Run conditions: two units/g substrate, substrate 2% (w/v), 30° C., pH 6.0, 24 hours, TLC
Experimental readout: Enzymatic action, Enzyme of Strain N75

Reference set, count: 5
compound="OC[C@H]1O[C@H](O[C@H]2O[C@H](CO)[C@@H](O[C@H]3O[C@H](CO)[C@@H](O)[C@H](O)[C@H]3O)[C@H](O)[C@H]2O)[C@H](O)[C@@H](O)[C@@H]1O [Maltosyl glucoside]" value_reported=++
compound="OC[C@H]1O[C@@H](OC[C@H]2OC(O)[C@H](O)[C@@H](O)[C@@H]2O)[C@H](O)[C@@H](O)[C@@H]1O (stereo partly drawn)" value_reported=−
compound=OC[C@@H](O)[C@@H](O[C@H]1O[C@H](CO)[C@@H](O[C@H]2O[C@H](CO)[C@@H](O)[C@H](O)[C@H]2O)[C@H](O)[C@H]1O)[C@H](O)[C@@H](O)CO value_reported=+
compound=O=C[C@H](O)[C@@H](O)[C@H](O[C@@H]1O[C@H](CO)[C@@H](O)[C@H](O)[C@H]1O)[C@H](O)CO value_reported=−
compound=OC[C@H]1O[C@@](CO)(O[C@H]2O[C@H](CO)[C@@H](O[C@H]3O[C@H](CO)[C@@H](O)[C@H](O)[C@H]3O)[C@H](O)[C@H]2O)[C@@H](O)[C@@H]1O value_reported=+

Value of measured Enzymatic action, Enzyme of Strain N75 for the entry OC[C@H]1O[C@H](O[C@H]2[C@H](O)[C@@H](O)[C@@H](OC[C@H]3OC(O)[C@H](O)[C@@H](O)[C@@H]3O)O[C@@H]2CO)[C@H](O)[C@@H](O)[C@@H]1O (stereo partly drawn) : ++

Looking up OC[C@H]1O[C@H](OC[C@H]2O[C@H](OC[C@H]3OC(O)[C@H](O)[C@@H](O)[C@@H]3O)[C@H](O)[C@@H](O)[C@@H]2O)[C@H](O)[C@@H](O)[C@@H]1O (stereo partly drawn) , I found its Enzymatic action, Enzyme of Strain N75 recorded as −
